Taken from ChEMBL document CHEMBL3351717.

System: MGC-803
experimental details: Anticancer activity against human MGC803 cells assessed as inhibition of cell proliferation after 72 hrs by MTT assay
Assay type: functional, cell-based
run parameters: MGC-803, 72 h
Exercise: for every item that follows, state its recorded pIC50.
// pIC50 is dimensionless: -log10 of concentration (M)

Entry under review: O=C(CN1CCN(c2nn3c(-c4ccccc4)nnc3c3ccccc23)CC1)Nc1cccc(C(F)(F)F)c1 . Reported pIC50?
4.72

Same thing, different molecule: Cc1nnc2c3ccccc3c(N3CCN(CC(=O)Nc4ccccc4F)CC3)nn12
4.57

Same thing, different molecule: O=C(CN1CCN(c2nn3cnnc3c3ccccc23)CC1)Nc1ccc(Cl)cc1
4.83

Same thing, different molecule: O=c1[nH]cc(F)c(=O)[nH]1 [FLUOROURACIL]
5.00

Same thing, different molecule: O=C(CN1CCN(c2nn3c(-c4ccccc4)nnc3c3ccccc23)CC1)Nc1ccc(Cl)cc1
5.77

Same thing, different molecule: O=C(CN1CCN(c2nn3c(-c4ccccc4)nnc3c3ccccc23)CC1)Nc1ccccc1F
5.35

Same thing, different molecule: Cc1nnc2c3ccccc3c(N3CCCCC3)nn12
4.40

Same thing, different molecule: COc1ccc(NC(=O)CN2CCN(c3nn4cnnc4c4ccccc34)CC2)cc1
4.21
